System: MDA-MB-435
RUN_DESCRIPTION: NCI tumour cell line growth inhibition, 48 h
Output Condition met for TGI not less than 8 µM; output Condition not met otherwise.

- COMPOUND: "C(=Nc1ccc(-c2nc3ccccc3s2)cc1)c1cccs1"
  CATEGORY: "Condition met"
- COMPOUND: "COc1c(OC2OC(C)C(O)C(O)C2O)c(OC)c2oc(-c3ccc(O)cc3)cc(=O)c2c1O (stereo unspecified)"
  CATEGORY: "Condition met"
- COMPOUND: "O=C(NNC(=O)c1ccncc1)C(=O)Nc1cc(Cl)c(Cl)cc1Cl"
  CATEGORY: "Condition met"
- COMPOUND: "C=C(CN1CCN(c2ccccn2)CC1)c1ccc(C(=O)Nc2ccccc2N)cc1"
  CATEGORY: "Condition not met"
- COMPOUND: "Cc1c(C(=O)O)sc2nc[nH]c(=O)c12"
  CATEGORY: "Condition met"
- COMPOUND: "O=C(O)CCN1C(=S)CSC1=S"
  CATEGORY: "Condition met"
- COMPOUND: "CC(=O)N1CCOC12N=NC(C)(C)O2 (stereo unspecified)"
  CATEGORY: "Condition met"
- COMPOUND: "CC(C)(C)OC(=O)NCC(c1c[nH]c2ccccc12)c1c[nH]c2ccccc12"
  CATEGORY: "Condition met"
- COMPOUND: "O=C(OCC1=CC(=O)c2ccccc2C1=O)c1ccccc1"
  CATEGORY: "Condition not met"
- COMPOUND: "COC(=O)c1ccc(C)cc1C1CN=NC12Cc1cccc(C)c1C2=O (stereo unspecified)"
  CATEGORY: "Condition met"
